OD values by entry
biological target: Tubulin (Bos taurus) (UniProt Q6B856+Q862L2+Q862F3); experiment: Inhibition of bovine tubulin at 10 uM assessed as tubulin heterodimers assembly to form microtubule by measuring OD at 350nm in presence of GTP measured every 30 secs for 90 mins by turbidimetric assay; assay type: protein assay

MOLECULE	OD
CC[C@]1(O)C[C@@H]2CN(CCc3c([nH]c4ccccc34)[C@@](C(=O)OC)(c3cc4c(cc3OC)N(C)[C@H]3[C@@](O)(C(=O)OC)[C@H](OC(C)=O)[C@]5(CC)C=CCN6CC[C@]43[C@@H]65)C2)C1 [VINBLASTINE]	0.2
CC(=O)O[C@H]1C(=O)[C@@]2(C)[C@H]([C@H](OC(=O)c3ccccc3)[C@]3(O)C[C@H](OC(=O)[C@H](O)[C@@H](NC(=O)c4ccccc4)c4ccccc4)C(C)=C1C3(C)C)[C@]1(OC(C)=O)CO[C@@H]1C[C@@H]2O	0.52
CCCN(CCC)c1nc2ccc3c4ccccc4sc3c2c(=O)[nH]1	0.26
CCCNc1nc2ccc3c4ccccc4sc3c2c(=O)[nH]1	0.24
